- assayedSystem: T1, VP1 pentamer of BKV genotype IV (recombinant) (BK virus genotype IV, UniProt P14996 30-300)
- T1 construct: also called GIV; VP1 BKV subtype IV; not shown: N-terminal His-tag of pESPRIT002; C-terminal biotin acceptor peptide (BAP) of pESPRIT002
- protocolText: ELISA, coated VP1 pentamer
readoutLabel: EC50 (mg/L)

{"binder": "antibody B10P1 (antibody, V domains shown) VH: EVQLSESGGGLVQPGGSLRLSCAASGFTFSSYAMSWVRQAPGKGLEWVSSLTGSGGSTYYRDSVKGRFTIFRDNSKKTLYMQMNSLRAEDTAVYYCAKEGAYSYDFWYFDLWGRGTLVTVSS VL: EIVLTQSPGTLSLSPGERATLSCRASQTVSGNYLAWYQQKPGQSPSLLIYGASSRATGIPDRFTGSGSGTDFTLTISRLEPADFAVYYCQQYGRPLTFGGGTKVDIK", "qualifierSymbol": "=", "readoutNumber": 15}
{"binder": "antibody B9P4 (antibody, V domains shown) VH: EVQLVESGGGVVQPGRSLRLSCAASGFTFSSYGMHWVRQAPGKGLEWVAVISKDGSNKYEADFVKGRFTISRDNSKNTLYLQMNSLRAEDTAVYYCAKIPLRRYSDSGDYSSGDFWGQGTLVTVSS VL: DVVMTQSPLSLTVTLGQPASISCRSSENLVYSDGNTYLSWFQQRPGQSPRRLIYKVSTRDSGVPDRFSGSGSGTDFTLKISRVEAEDVGVYYCMQTTHWPPLTFGGGTKVEIK", "qualifierSymbol": "≥", "readoutNumber": 10}
{"binder": "antibody F4P5 (antibody, V domains shown) VH: EVQLVESGGGVVQPGRSLRLSCAASGFTFSNFGMHWVRQPPGKGLEWVAVISYDGSDKFYADSVKGRFTISRDNFKNTLYVQMNSLRAEDTAVYYCAKDRVRTKYYYDHSGPFDYWGRGTLVTVSS VL: SYELTQPPSVSVAPGQTARIACGGNNIGSKSVHWYQQRPGQAPVLVVYDDDDRPSGIPERFSGSNSGNTATLTISRVEAGDEADYFCQVWMTNSDRPVFGGGTKLTVL", "qualifierSymbol": "=", "readoutNumber": 12}
{"binder": "antibody C4P6 (antibody, V domains shown) VH: QVQLQESGPGLVRPSETLSLTCTVSGGSISPYYWNWIRQPPGKGLEWIGYIYYSGNTKYNPSLKSRVTISVDTSKNQFSLKLSSVSAADTAVYYCARDSCSGTCYLGGNWFDPWGQGTLVTVSS VL: QSVLTQPPSVSGAPGQRVTISCTGSSSNIGANNDVHWYQHLPGTAPKLLIYGNNHRPSGVPDRFSGSKSGTSASLAITGLQAEDEADYYCQSYDSSLSTSKVFGGGTKLTVL", "qualifierSymbol": "=", "readoutNumber": 2.25}
{"binder": "antibody G5P1 (antibody, V domains shown) VH: QVQLQESGPGLVKPSGTLSLTCTVSGGSIRNSYWSWIRQPPGKGLEWIGYIYYTGTTNSNPSLKSRVTISVHMSRNQISLKLNSVTPADTAVYYCAQGGGSGDLHYWGQGTLVTVSS VL: NFMLTQPASVSGSPGQSITISCTGTRSDVGGYNYVSWYQQHPGKAPKLMIYDISSRPSGVSNRFSASKSGNTASLTISGLQAEDEADYYCISFATGYTWVFGGGTRLTVL", "qualifierSymbol": "=", "readoutNumber": 2.5}

Data credit: patent EP4659811A1
